Below, each entry is listed alongside its reported Ki.
studyTarget: Histone deacetylase 1 (Homo sapiens, UniProt Q13547)
Sequence (Q13547 whole entry): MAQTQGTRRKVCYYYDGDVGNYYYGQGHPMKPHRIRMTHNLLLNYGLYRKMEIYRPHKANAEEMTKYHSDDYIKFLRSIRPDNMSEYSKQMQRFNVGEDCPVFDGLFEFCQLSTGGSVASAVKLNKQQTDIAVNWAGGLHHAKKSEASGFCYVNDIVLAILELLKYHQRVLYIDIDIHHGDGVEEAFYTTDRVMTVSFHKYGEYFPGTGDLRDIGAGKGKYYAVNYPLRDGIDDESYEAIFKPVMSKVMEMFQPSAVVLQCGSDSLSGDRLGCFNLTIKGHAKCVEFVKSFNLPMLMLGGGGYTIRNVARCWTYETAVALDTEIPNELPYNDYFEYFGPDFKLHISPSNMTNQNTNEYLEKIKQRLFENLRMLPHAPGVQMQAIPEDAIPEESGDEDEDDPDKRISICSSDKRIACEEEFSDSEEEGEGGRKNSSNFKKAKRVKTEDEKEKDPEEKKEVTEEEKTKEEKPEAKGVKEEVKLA
assayMethodText: Inhibition of human recombinant HDAC1 using [Ac-Leu-Gly-Lys(Ac)-AMC substrate incubated for 15 to 30 mins
Give the number; µM is assumed, so skip it.

Before answering, review these 8 worked examples.
CC(C)[C@H]1NC(=O)C[C@@H](C/C=C\CCC(=O)O)NC(=O)[C@@H](Cc2ccccc2)NC(=O)[C@@H](C)NC1=O ... 0.6
CC(C)[C@H]1NC(=O)C[C@@H](/C=C/CCCC(=O)O)NC(=O)[C@@H](Cc2c[nH]c3ccccc23)NC(=O)[C@@H](C)NC1=O ... 0.5
CC(C)[C@H]1NC(=O)C[C@@H](C/C=C\CCC(=O)O)NC(=O)[C@@H](Cc2c[nH]c3ccccc23)NC(=O)[C@@H](C)NC1=O ... 0.2
CC(C)[C@H]1NC(=O)C[C@@H](/C=C/CCCC(=O)O)NC(=O)[C@@H](Cc2ccc(O)cc2)NC(=O)[C@@H](C)NC1=O ... 0.7
CC(C)[C@H]1NC(=O)C[C@@H](CCCCCC(=O)O)NC(=O)[C@@H](Cc2c[nH]c3ccccc23)NC(=O)[C@@H](C)NC1=O ... 0.9
CC(C)[C@H]1NC(=O)C[C@@H](C/C=C\CCC(=O)O)NC(=O)[C@@H](Cc2ccc(O)cc2)NC(=O)[C@@H](C)NC1=O ... 0.3
CC(C)[C@H]1NC(=O)C[C@@H](/C=C/CCCC(=O)O)NC(=O)[C@@H](Cc2ccccc2)NC(=O)[C@@H](C)NC1=O ... 1.2
CC(C)[C@H]1NC(=O)C[C@@H](CCCCCC(=O)O)NC(=O)[C@@H](Cc2ccc(O)cc2)NC(=O)[C@@H](C)NC1=O ... 1

Given the molecule CC(C)[C@H]1NC(=O)C[C@@H](CCCCCC(=O)O)NC(=O)[C@@H](Cc2ccccc2)NC(=O)[C@@H](C)NC1=O , write its reported Ki.
0.9
